target: GSK3α (Homo sapiens (Human)); assay: pThr231 tau phosphorylation plate-based assay in HEK-huTau cells transfected with GSK3α; conditions: HEK-huTau cells transfected with human GSK3α; 10-point dose response, 2 hours; read-out: GSK3α IC50 (inhibition of pThr231)
Sequence (P49840 whole entry): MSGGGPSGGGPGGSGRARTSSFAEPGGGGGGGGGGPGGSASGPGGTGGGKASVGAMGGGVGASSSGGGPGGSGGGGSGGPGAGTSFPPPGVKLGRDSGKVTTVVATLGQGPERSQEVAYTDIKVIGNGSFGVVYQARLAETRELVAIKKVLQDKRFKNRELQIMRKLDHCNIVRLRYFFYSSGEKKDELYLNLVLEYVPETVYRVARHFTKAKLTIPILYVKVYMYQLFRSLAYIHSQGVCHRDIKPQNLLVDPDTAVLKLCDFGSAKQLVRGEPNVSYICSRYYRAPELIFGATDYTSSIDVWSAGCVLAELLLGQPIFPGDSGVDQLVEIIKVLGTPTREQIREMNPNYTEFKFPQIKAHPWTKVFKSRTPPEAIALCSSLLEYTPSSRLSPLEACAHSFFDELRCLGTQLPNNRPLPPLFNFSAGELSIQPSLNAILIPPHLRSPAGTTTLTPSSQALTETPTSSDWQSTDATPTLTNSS
MEASURE_NAME: IC50 (nM)
Express your answer in nM, writing the number without its unit.

// query Look up and report measured IC50 for this entry: CCC1(c2cccc(C(F)(F)F)c2)C2=C(Nc3n[nH]cc31)C(F)C(C)(C)CC2=O (single isomer, unassigned)
// result 150

// query Note down IC50 recorded for CCC1(c2cccc(-c3c(F)cncc3OC)c2)C2=C(Nc3n[nH]cc31)C(F)C(C)(C)CC2=O (stereo not drawn)
// result 96

// query Give recorded IC50. CCC1(c2cccc(-c3cn(C)nc3C)c2)C2=C(Nc3n[nH]cc31)C(F)C(C)(C)CC2=O (single isomer, unassigned)
// result 61

* * *

target: GSK3b (GST-full length GSK3b) (Homo sapiens (Human)); test: GSK3b TR-FRET kinase assay; assay type: biochemical; conditions: 1 nM GSK3b, 2 μM ATP, 30 minute preincubation; geometric mean; read-out: GSK3-B TR-FRET BIOCHEMICAL (TR-FRET); GMean; IC50
Sequence (P49841 whole entry): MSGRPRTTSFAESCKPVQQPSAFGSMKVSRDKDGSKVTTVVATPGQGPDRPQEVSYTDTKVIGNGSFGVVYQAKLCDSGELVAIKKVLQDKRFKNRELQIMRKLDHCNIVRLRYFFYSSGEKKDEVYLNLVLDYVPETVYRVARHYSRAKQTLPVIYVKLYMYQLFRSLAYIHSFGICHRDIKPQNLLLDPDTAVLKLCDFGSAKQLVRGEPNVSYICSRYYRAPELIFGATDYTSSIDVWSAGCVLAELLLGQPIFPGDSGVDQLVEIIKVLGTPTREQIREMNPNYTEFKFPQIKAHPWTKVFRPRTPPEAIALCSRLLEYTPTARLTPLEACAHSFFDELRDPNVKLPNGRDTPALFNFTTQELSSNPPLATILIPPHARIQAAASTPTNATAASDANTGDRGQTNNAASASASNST
I'd appreciate it if you could supply IC50 values for the items below.

// query Supply measured IC50 of CCC1(c2cccc(N(C)c3ncccn3)c2)C2=C(CC(C)(C)NC2=O)Nc2n[nH]c(C)c21 (centres unmarked) [Compound 949182] in your reply.
// result ≤ 100 nM

// query State its IC50 for this compound: CCC1(c2cccc(-c3cnn(C)c3C)c2)C2=C(CC(C)(C)NC2=O)Nc2n[nH]c(C(F)(F)F)c21 (centres unmarked) [Compound 947403]
// result ≤ 100 nM

// query // Input: CCC1(c2cccc(N3CCOCC3)c2)C2=C(CC(C)(C)NC2=O)Nc2n[nH]c(C(F)(F)F)c21 (centres unmarked) [Compound 947863] . Output its IC50 only.
// result ≤ 100 nM

// query Annotate the compound CC[C@]1(c2cccc(-c3ccncc3F)c2)C2=C(CC(C)(C)NC2=O)Nc2[nH]nc(C(F)(F)F)c21 [Compound 948770] with its measured IC50.
// result 100 to 1000 nM

// query Entry CCC1(c2cccc(C3CCOCC3)c2)C2=C(CC(C)(C)CC2=O)Nc2n[nH]cc21 (centres unmarked) [Compound 819638] needs its IC50 filled in; supply it.
// result 100 to 1000 nM

// query Return value of IC50 for input CCC1(c2cccc(N3CCOCC3)c2)C2=C(CC(C)(C)CC2=O)Nc2n[nH]c(C(F)(F)F)c21 (centres unmarked) [Compound 816886] , no commentary.
// result 1000 to 5000 nM

// query Give the value of IC50 reported for the following: CC[C@]1(c2ccccc2)C2=C(CC(C)(C)CC2=O)Nc2n[nH]c(Br)c21 [Compound 792341]
// result 100 to 1000 nM

// query Please supply the value of reported IC50 for the item CC[C@]1(c2ccccc2)C2=C(CC3(CCC3)CC2=O)Nc2n[nH]cc21 [Compound 819572]
// result > 5000 nM

// query Please supply the value of reported IC50 for the item CCC1(c2cccc(OC(C)C)c2)C2=C(CC(C)(C)CC2=O)Nc2n[nH]cc21 (centres unmarked) [Compound 801448]
// result 100 to 1000 nM

// query Entry CCC1(c2cccc(S(=O)(=O)C3CC3)c2)C2=C(CC(C)(C)NC2=O)Nc2n[nH]c(C(F)(F)F)c21 (centres unmarked) [Compound 948776] needs its IC50 filled in; supply it.
// result 100 to 1000 nM

// query Complete the entry with IC50 for CC[C@@]1(c2cccc(-c3ccncc3F)c2)C2=C(CC(C)(C)NC2=O)Nc2[nH]nc(C(F)(F)F)c21 [Compound 948777]
// result ≤ 100 nM

// query Look up IC50 of CCC1(c2cccc(Br)c2)C2=C(CC(C(F)(F)F)CC2=O)Nc2n[nH]cc21 (centres unmarked) [Compound 819565] and report it.
// result 100 to 1000 nM

// query Provide measured IC50 value, entry: CC[C@]1(c2cccc(C(C)C)c2)C2=C(CC(C)(C)CC2=O)Nc2n[nH]cc21 [Compound 810375]
// result > 5000 nM

// query Specify IC50 for CC[C@]1(c2ccccc2)C2=C(C[C@H](C)CC2=O)Nc2n[nH]cc21 [Compound 789011] and stop.
// result > 5000 nM

// query Give recorded IC50. CCC1(c2cccc(-c3ccnc4c3CCC4)c2)C2=C(CC(C)(C)NC2=O)Nc2n[nH]cc21 (centres unmarked) [Compound 947676]
// result 100 to 1000 nM

// query Return value of IC50 for input CCC1(c2cccc(S(=O)(=O)CC3CC3)c2)C2=C(CC(C)(C)NC2=O)Nc2n[nH]c(C(F)(F)F)c21 (centres unmarked) [Compound 948179] , no commentary.
// result ≤ 100 nM

// query Input CC[C@@]1(c2cccc(-c3ccnc4ccc(OC)cc34)c2)C2=C(CC(C)(C)NC2=O)Nc2n[nH]cc21 [Compound 948518] , output reported IC50.
// result > 5000 nM

// query Indicate the recorded IC50 value for this compound: CCC1(c2cccc(N3CCCCC3)c2)C2=C(CC(C)(C)NC2=O)Nc2n[nH]cc21 (centres unmarked) [Compound 947566]
// result 1000 to 5000 nM

// query Give reported IC50 value for CCC1(c2cccc(C(F)(F)F)c2)C2=C(CCN(c3cccc(C)c3)C2=O)Nc2n[nH]cc21 (centres unmarked) [Compound 948052]
// result 100 to 1000 nM

// query Note down IC50 recorded for CC[C@@]1(c2cccc(N3CCCC3)c2)C2=C(CC(C)(C)CC2=O)Nc2n[nH]cc21 [Compound 810509]
// result > 5000 nM

// query Give me measured IC50, please, for this compound: C[C@@]1(c2ccccc2)C2=C(CC3(CCCC3)CC2=O)Nc2n[nH]cc21 [Compound 792338]
// result 100 to 1000 nM

// query Return reported IC50. Input compound: CC[C@]1(c2cccc(Br)c2)C2=C(CC(C)(C)[C@@H](F)C2=O)Nc2n[nH]cc21 [Compound 835313]
// result > 5000 nM

// query Give me measured IC50, please, for this compound: CCc1cnccc1-c1cccc([C@]2(CC)C3=C(CC(C)(C)NC3=O)Nc3n[nH]cc32)c1 [Compound 948639]
// result 100 to 1000 nM

// query Annotate the compound CC[C@]1(c2cccc(-c3ccncc3F)c2)C2=C(CC(C)(C)NC2=O)Nc2n[nH]c(C)c21 [Compound 947805] with its measured IC50.
// result 1000 to 5000 nM

// query Consider the compound CC[C@]1(c2cccc(-c3cnn(CCOC)c3)c2)C2=C(CC(C)(C)NC2=O)Nc2n[nH]cc21 [Compound 949105] . State its measured IC50.
// result 100 to 1000 nM

// query Using known records, supply IC50 for CC[C@@]1(c2cccc(C(C)C)c2)C2=C(CC(C)(C)CC2=O)Nc2n[nH]cc21 [Compound 810373]
// result ≤ 100 nM

// query State, in one line, measured IC50 of CCc1cnccc1-c1cccc(C2(CC)C3=C(CC(C)(C)NC3=O)Nc3n[nH]cc32)c1 (centres unmarked) [Compound 948657]
// result > 5000 nM

// query Tell us which IC50 value is on record for CCC1(c2cccc(-c3ccnc(C)c3C)c2)C2=C(CC(C)(C)NC2=O)Nc2n[nH]c(C(F)(F)F)c21 (centres unmarked) [Compound 948185]
// result ≤ 100 nM

// query State its IC50 for this compound: CCC1(c2cccc(-c3ccncc3C)c2)C2=C(CC(C)(C)NC2=O)Nc2n[nH]c(C(F)(F)F)c21 (centres unmarked) [Compound 947404]
// result ≤ 100 nM
